- target-under-test: human 5HT1D (Homo sapiens, UniProt P28221)
- Construct: expressed in transfected cells
- Sequence (P28221 whole entry): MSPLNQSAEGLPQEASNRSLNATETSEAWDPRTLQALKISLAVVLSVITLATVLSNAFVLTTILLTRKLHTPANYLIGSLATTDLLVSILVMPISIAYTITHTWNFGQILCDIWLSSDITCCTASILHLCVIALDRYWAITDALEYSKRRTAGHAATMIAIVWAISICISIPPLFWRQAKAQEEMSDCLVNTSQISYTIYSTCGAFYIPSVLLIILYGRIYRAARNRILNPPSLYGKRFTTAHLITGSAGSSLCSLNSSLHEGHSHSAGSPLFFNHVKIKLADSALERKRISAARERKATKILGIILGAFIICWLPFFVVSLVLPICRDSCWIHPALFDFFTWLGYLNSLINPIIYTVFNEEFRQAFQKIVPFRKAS
- assay: Radioligand binding, 5HT1D receptor ([3H]-serotonin)
- conditions: Table 8; Ki h5HT1D divided by Ki hGAL3
measured-attribute: selectivity ratio h5HT1D

Entry O=C1C(=Nc2ccc(Cl)cc2)c2ccccc2N1c1ccccc1 [Example 97] ; selectivity ratio h5HT1D = >100

Entry CN(CCc1c[nH]c2ccccc12)c1nc(Nc2ccc(F)c(F)c2)cc(N2CCCCC2)n1 [Example 15] ; selectivity ratio h5HT1D = 17

Entry CN(C)c1cc(Nc2ccc(Cl)c(Cl)c2)nc(Nc2ccccc2)n1 [Example 60] ; selectivity ratio h5HT1D = >100

Entry Cc1ccc(Nc2cc(N3CCCCC3)nc(N(C)CCc3ccccc3)n2)cc1 [Example 22] ; selectivity ratio h5HT1D = >30

Entry O=C1C(=Nc2cccc(Cl)c2)c2ccccc2N1c1ccccc1 [Example 94] ; selectivity ratio h5HT1D = >100

Entry Cc1ccc(Nc2cc(N3CCCCC3)nc(N3CCN(c4ncccc4C(F)(F)F)CC3)n2)cc1 [Example 34] ; selectivity ratio h5HT1D = >100

Entry O=C1C(=Nc2cccc(C(F)(F)F)c2)c2ccccc2N1c1ccccc1 [Example 92] ; selectivity ratio h5HT1D = >100

Entry Cc1ccc(Nc2cc(N3CCCCC3)nc(N(C)CCc3c[nH]c4ccccc34)n2)cc1 [Example 11] ; selectivity ratio h5HT1D = 1

Entry COC[C@@H]1[C@@H](c2ccccc2)OCCN1c1nc(Nc2ccc(C)cc2)cc(N2CCCCC2)n1 [Example 49] ; selectivity ratio h5HT1D = >30

Entry COc1cccc(Nc2cc(N3CCCCC3)nc(N(C)CCc3c[nH]c4ccccc34)n2)c1 [Example 17] ; selectivity ratio h5HT1D = 12

Entry O=C1C(=Nc2ccc(C(F)(F)F)cc2)c2ccccc2N1c1ccccc1 [Example 95] ; selectivity ratio h5HT1D = >100

Entry O=C1C(=Nc2ccc(Br)cc2)c2ccccc2N1c1ccccc1 [Example 98] ; selectivity ratio h5HT1D = >100

Entry Cc1ccc(Nc2cc(N(C)C)nc(N(C)CCc3c[nH]c4ccccc34)n2)cc1 [Example 77] ; selectivity ratio h5HT1D = 9
